test system: NCI-H226 lung; experiment: NCI tumour cell line growth inhibition, 48 h; in the data active means GI50 below about 0.43 µM; inactive means the rest
Write down one outcome, taken from active, inactive

| compound | tested_target | label |
| --- | --- | --- |
| OCc1ccc(N(Cc2ccc(F)cc2)CC2CC2)cc1Cl | NCI-H226 lung | active |
| O=C1N[C@@H]2[C@@H](O)[C@@H](O)[C@H](O)C[C@H]2c2cc3c(c(O)c21)OCO3 | NCI-H226 lung | active |
| CC(=O)OC1CC2C(C)(C)C(=O)C=C[C@]2(C)C2CC[C@]3(C)C(OCC(=O)[C@H]3c3ccoc3)[C@]12C (stereo partly drawn) | NCI-H226 lung | inactive |
| C[C@]12CCC(=O)CC1CC[C@@H]1C2CC[C@@]2(C)C1CC[C@@H]2OC(=O)CC[Se][Se]CCC(=O)O[C@H]1CCC2[C@@H]3CCC4CC(=O)CC[C@]4(C)C3CC[C@@]21C (stereo partly drawn) | NCI-H226 lung | inactive |
| [Cl-].[Nd+3].[O-]/N=C(\c1ccccc1)c1ccccn1.[O-]/N=C(\c1ccccc1)c1ccccn1.[O-]/N=C(\c1ccccc1)c1ccccn1 | NCI-H226 lung | inactive |
| O=C(Nc1cccc(Cl)c1)Nc1nccs1 | NCI-H226 lung | inactive |
| C=C1C(=O)O[C@H]2[C@H]1CC/C(COC(=O)CCSSCCC(=O)OC/C1=C/CC[C@@]3(C)O[C@H]3[C@H]3OC(=O)C(=C)[C@@H]3CC1)=C\CC[C@@]1(C)O[C@@H]21 | NCI-H226 lung | inactive |
| Cc1cc(N(CCNc2ccnc3cc(Cl)ccc23)Cc2cccs2)nc(Cl)n1 | NCI-H226 lung | inactive |

Record request — test call for "C=CC(=O)N1C[C@H](COc2nc(Nc3cnn(C)c3)nc3[nH]cc(Cl)c23)[C@@H](OC)C1"
inactive

Record request — test call for COc1cc2c(cc1OCc1ccccc1)N=CC1C[C@@H](O)CN1C2=O (stereo partly drawn)
inactive

Record request — test call for "O=CN/N=C/c1ccc(Cl)c([N+](=O)[O-])c1"
inactive

Record request — test call for "O=C(N/N=C/c1c(Cl)cccc1Cl)c1cccnc1Nc1cccc(C(F)(F)F)c1"
inactive

Record request — test call for "Cc1nn(CCO)c(C)c1N=[N+]([O-])c1c(C)nn(CCO)c1C"
inactive

Record request — test call for "CCOC(=O)c1nnn(-c2no[n+]([O-])c2-c2ccc(OC)cc2)c1COc1cccc2cccnc12"
inactive

Record request — test call for CC(=O)OC1Oc2ccccc2-c2oc(=O)c(-c3ccc(F)cc3)cc21 (stereo not drawn)
inactive

Record request — test call for O=c1cc(NCC(O)CN2CCOCC2)n(Cc2ccccc2)c(=O)n1Cc1ccccc1 (stereo not drawn)
inactive

Record request — test call for N#Cc1c(Br)n(C2OC(CO)C(O)C2O)c2ncn3ccnc3c12 (stereo not drawn)
inactive

Record request — test call for "CC(C)OC(=O)c1cc(NS(=O)(=O)c2ccc3ccccc3c2)cc(C(=O)OC(C)C)c1"
inactive

###

What TGI was measured for each of the following?
system: HT29 colon; assay: NCI tumour cell line growth inhibition, 48 h

The cases that follow already have their TGI on record.
| molecule | TGI |
| --- | --- |
| NC(=O)NN/C=C(/C=Nc1ccccc1)[N+](=O)[O-] | > 100 µM |
| Cc1nc(N)nn1C1OCC(O)C(O)C1O (stereo not given) | > 100 µM |
| Cc1nn(CCO)c(C)c1N=[N+]([O-])c1c(C)nn(CCO)c1C | 13.7 µM |
| CC1=C2C(=O)c3ccccc3C(=O)[C@H]2C[C@@H](N2CCCC2=O)O1 | > 100 µM |

For every listed record, write down its TGI.
1. C(=C1c2ccccc2-c2ccccc21)c1ccncc1
2. COc1cc(-c2csc(NC(=O)Nc3ccc(Cl)c(C(F)(F)F)c3)n2)cc(OC)c1OC

1. 13.9 µM
2. 4.68 µM

For every listed record, write down its TGI.
1. O=C1c2cc3ccccc3cc2C2(c3ccc(Cl)cc3)NCCN12 (stereo not given)
2. C#CCOC(=O)C(N)C(C)O (stereo not given)
3. Cc1cc(C(C)C)cc(O)c(=O)c1

["> 100 µM", "> 100 µM", "> 100 µM"]

For every listed record, write down its TGI.
1. COc1ccc(Nc2nc3cc(C(F)(F)F)ccc3nc2C(=O)O)cc1
2. CCOC(=O)/C=C\c1c(Cl)n(-c2ccccc2)c(=O)n(-c2ccccc2)c1=O
3. CCN(CC)CCCNc1[nH]ncc2cc3c(nc4ccccc43)c(C)c12

1. > 100 µM
2. 38.4 µM
3. 15.8 µM

For every listed record, write down its TGI.
1. CC1(C)CC[C@]2(C(N)=O)CC[C@]3(C)C(=CC[C@@H]4[C@@]5(C)C/C(=C/c6cccnc6)C(=O)C(C)(C)[C@@H]5CC[C@]43C)[C@@H]2C1
2. O=CN/N=C/c1ccc(Cl)c([N+](=O)[O-])c1
3. O=Cc1cn(Cc2ccc(Cl)cc2)c2ccccc12

1: 4.56 µM; 2: 14.4 µM; 3: > 100 µM
